pKi listing for selected compounds.
- target.under.test: Endothelin-1 receptor (Sus scrofa)
- Sequence (Q29010 whole entry): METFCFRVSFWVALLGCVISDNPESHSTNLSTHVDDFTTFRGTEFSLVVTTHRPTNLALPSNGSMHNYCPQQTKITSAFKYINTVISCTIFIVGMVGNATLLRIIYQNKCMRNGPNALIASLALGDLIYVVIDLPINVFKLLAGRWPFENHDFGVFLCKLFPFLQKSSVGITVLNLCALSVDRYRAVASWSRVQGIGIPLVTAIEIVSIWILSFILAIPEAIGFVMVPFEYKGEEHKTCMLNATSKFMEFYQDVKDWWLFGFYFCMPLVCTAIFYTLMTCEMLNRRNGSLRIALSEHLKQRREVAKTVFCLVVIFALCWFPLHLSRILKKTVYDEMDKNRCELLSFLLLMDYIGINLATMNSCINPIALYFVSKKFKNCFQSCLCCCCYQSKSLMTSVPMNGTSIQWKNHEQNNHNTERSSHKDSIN
Starred links: 1 amine or outer side, 2 acyl side, 3 side chain; linkers in the order of their positions; H or OH if unused. Residues, ends and D or L forms follow the SMILES beside them. Suc = O=C(CCC(=O)[*:2])[*:1]
API: returns pKi as number; meaning -log10 of concentration in mol/L.

CC[C@H](C)[C@H](NC(=O)[C@H](CC(=O)O)NC(=O)[C@H](CC(C)C)NC(=O)[C@H](Cc1c[nH]cn1)NC(=O)[C@H](C)NC(=O)[C@H](Cc1ccccc1)NC(=O)[C@H](Cc1ccc(O)cc1)NC(=O)CNC(=O)[C@H](C)NC(=O)[C@H](CCC(=O)O)NC(=O)CCC(=O)O)C(=O)N[C@H](C(=O)N[C@@H](Cc1c[nH]c2ccccc12)C(=O)O)[C@@H](C)CC (Suc-EAGYFAHLDIIW-OH) :: 5.89
CC[C@H](C)[C@H](NC(=O)[C@H](CC(=O)O)NC(=O)[C@H](CC(C)C)NC(=O)[C@H](Cc1cnc[nH]1)NC(=O)[C@H](C)NC(=O)[C@H](Cc1ccccc1)NC(=O)CNC(=O)[C@@H](NC(=O)[C@H](C)NC(=O)[C@H](CCC(=O)O)NC(=O)CCC(=O)O)C(C)C)C(=O)N[C@H](C(=O)N[C@@H](Cc1c[nH]c2ccccc12)C(=O)O)[C@@H](C)CC (Suc-EAVGFAHLDIIW-OH) :: 5.30

Form field: pKi recorded for CC[C@H](C)[C@H](NC(=O)[C@H](CC(=O)O)NC(=O)[C@H](CC(C)C)NC(=O)[C@H](Cc1c[nH]cn1)NC(=O)[C@H](C)NC(=O)[C@H](Cc1ccccc1)NC(=O)[C@H](Cc1ccc(O)cc1)NC(=O)[C@@H](NC(=O)[C@H](C)NC(=O)[C@H](CCC(=O)O)NC(=O)CCC(=O)O)C(C)C)C(=O)N[C@H](C(=O)N[C@@H](Cc1c[nH]c2ccccc12)C(=O)O)[C@@H](C)CC (Suc-EAVYFAHLDIIW-OH) with Endothelin-1 receptor (Sus scrofa) (enter value)
6.21

* * *

Starred links: 1 amine or outer side, 2 acyl side, 3 side chain; linkers in the order of their positions; H or OH if unused. Residues, ends and D or L forms follow the SMILES beside them. Suc = O=C(CCC(=O)[*:2])[*:1]
What follows is a record of Ki for Endothelin receptor type B (Sus scrofa).
Number only, in nM; omit the unit.

CC[C@H](C)[C@H](NC(=O)[C@H](CC(=O)O)NC(=O)[C@H](CC(C)C)NC(=O)[C@H](Cc1cnc[nH]1)NC(=O)[C@H](C)NC(=O)[C@H](Cc1ccccc1)NC(=O)[C@H](Cc1ccc(O)cc1)NC(=O)[C@@H](NC(=O)[C@H](C)NC(=O)[C@H](CCC(=O)O)NC(=O)CCC(=O)O)C(C)C)C(=O)NCC(=O)N[C@@H](Cc1c[nH]c2ccccc12)C(=O)O (Suc-EAVYFAHLDIGW-OH) :: 5200
CC[C@H](C)[C@H](NC(=O)[C@H](CC(=O)O)NC(=O)[C@H](CC(C)C)NC(=O)[C@H](Cc1c[nH]cn1)NC(=O)[C@H](C)NC(=O)[C@H](Cc1ccccc1)NC(=O)[C@H](Cc1ccc(O)cc1)NC(=O)CNC(=O)[C@H](C)NC(=O)[C@H](CCC(=O)O)NC(=O)CCC(=O)O)C(=O)N[C@H](C(=O)N[C@@H](Cc1c[nH]c2ccccc12)C(=O)O)[C@@H](C)CC (Suc-EAGYFAHLDIIW-OH) :: 0.91
CC[C@H](C)[C@H](NC(=O)[C@H](CC(=O)O)NC(=O)[C@H](CC(C)C)NC(=O)[C@H](Cc1c[nH]cn1)NC(=O)[C@H](C)NC(=O)[C@H](Cc1ccccc1)NC(=O)[C@H](Cc1ccc(O)cc1)NC(=O)[C@@H](NC(=O)[C@H](C)NC(=O)[C@H](CCC(=O)O)NC(=O)CCC(=O)O)C(C)C)C(=O)N[C@H](C(=O)N[C@@H](Cc1c[nH]c2ccccc12)C(=O)O)[C@@H](C)CC (Suc-EAVYFAHLDIIW-OH) :: 0.077
CC[C@H](C)[C@H](NC(=O)[C@H](CC(=O)O)NC(=O)CNC(=O)[C@H](Cc1c[nH]cn1)NC(=O)[C@H](C)NC(=O)[C@H](Cc1ccccc1)NC(=O)[C@H](Cc1ccc(O)cc1)NC(=O)[C@@H](NC(=O)[C@H](C)NC(=O)[C@H](CCC(=O)O)NC(=O)CCC(=O)O)C(C)C)C(=O)N[C@H](C(=O)N[C@@H](Cc1c[nH]c2ccccc12)C(=O)O)[C@@H](C)CC (Suc-EAVYFAHGDIIW-OH) :: 5.9

Suppose we examine the compound CC[C@H](C)[C@H](NC(=O)CNC(=O)[C@H](CC(=O)O)NC(=O)[C@H](CC(C)C)NC(=O)[C@H](Cc1cnc[nH]1)NC(=O)[C@H](C)NC(=O)[C@H](Cc1ccccc1)NC(=O)[C@H](Cc1ccc(O)cc1)NC(=O)[C@@H](NC(=O)[C@H](C)NC(=O)[C@H](CCC(=O)O)NC(=O)CCC(=O)O)C(C)C)C(=O)N[C@@H](Cc1c[nH]c2ccccc12)C(=O)O (Suc-EAVYFAHLDGIW-OH) ; what Ki value has been reported?
180

Please look up its Ki: CC[C@H](C)[C@H](NC(=O)[C@H](CC(=O)O)NC(=O)[C@H](CC(C)C)NC(=O)[C@H](Cc1cnc[nH]1)NC(=O)[C@H](C)NC(=O)[C@H](Cc1ccccc1)NC(=O)CNC(=O)[C@@H](NC(=O)[C@H](C)NC(=O)[C@H](CCC(=O)O)NC(=O)CCC(=O)O)C(C)C)C(=O)N[C@H](C(=O)N[C@@H](Cc1c[nH]c2ccccc12)C(=O)O)[C@@H](C)CC (Suc-EAVGFAHLDIIW-OH)
11

Consider the compound shown here: O=C(N[C@@H](Cc1c[nH]c2ccccc12)C(=O)O)C1CC1c1ccccc1 (stereo partly drawn) What is its recorded Ki?
16

* * *

Here's what we have: pKi numbers for Endothelin-1 receptor (Sus scrofa, UniProt Q29010).
pKi: −log10 of the molar value. Starred links: 1 amine or outer side, 2 acyl side, 3 side chain; linkers in the order of their positions; H or OH if unused. Residues, ends and D or L forms follow the SMILES beside them. Suc = O=C(CCC(=O)[*:2])[*:1]

CC[C@H](C)[C@H](NC(=O)CNC(=O)[C@H](CC(=O)O)NC(=O)[C@H](CC(C)C)NC(=O)[C@H](Cc1cnc[nH]1)NC(=O)[C@H](C)NC(=O)[C@H](Cc1ccccc1)NC(=O)[C@H](Cc1ccc(O)cc1)NC(=O)[C@@H](NC(=O)[C@H](C)NC(=O)[C@H](CCC(=O)O)NC(=O)CCC(=O)O)C(C)C)C(=O)N[C@@H](Cc1c[nH]c2ccccc12)C(=O)O (Suc-EAVYFAHLDGIW-OH) :: < 5.00
CC[C@H](C)[C@H](NC(=O)[C@H](CC(=O)O)NC(=O)[C@H](CC(C)C)NC(=O)CNC(=O)[C@H](C)NC(=O)[C@H](Cc1ccccc1)NC(=O)[C@H](Cc1ccc(O)cc1)NC(=O)[C@@H](NC(=O)[C@H](C)NC(=O)[C@H](CCC(=O)O)NC(=O)CCC(=O)O)C(C)C)C(=O)N[C@H](C(=O)N[C@@H](Cc1c[nH]c2ccccc12)C(=O)O)[C@@H](C)CC (Suc-EAVYFAGLDIIW-OH) :: 6.60

Next item in the queue.
Entry CC[C@H](C)[C@H](NC(=O)[C@H](CC(=O)O)NC(=O)[C@H](CC(C)C)NC(=O)[C@H](Cc1cnc[nH]1)NC(=O)[C@H](C)NC(=O)[C@H](Cc1ccccc1)NC(=O)[C@H](Cc1ccc(O)cc1)NC(=O)[C@@H](NC(=O)[C@H](C)NC(=O)[C@H](CCC(=O)O)NC(=O)CCC(=O)O)C(C)C)C(=O)N[C@H](C(=O)NCC(=O)O)[C@@H](C)CC (Suc-EAVYFAHLDIIG-OH) , system Endothelin-1 receptor (Sus scrofa, UniProt Q29010): what pKi was measured?
< 5.00

The measured values listed here are drawn from ChEMBL document CHEMBL1129770.
